# Test system: SR
# procedure.text: NCI tumour cell line growth inhibition, 48 h
Active and inactive are the calls of the source. Rule as the data show it: active = GI50 up to about 1.1 µM and inactive = higher.
Labels: T for active, F for inactive

{"columns": ["compound", "category"],
 "data": [
  ["O=c1[nH]nc(Cc2ccccc2)n1/N=C\\c1ccccc1", "F"],
  ["COc1cc([C@@H]2c3cc4c(cc3[C@H](OC3OC5COC(C(C)C)OC5C(O)C3O)C3COC(=O)[C@@H]32)OCO4)cc(OC)c1O (some centres not stated)", "F"],
  ["CCN(CC)CCN1C(=O)CC2[C@@H]3CCc4cc(OC)ccc4C3CC[C@]2(C)C1=O (some centres not stated)", "F"],
  ["Cc1ccc(NC(=O)/C(=N/NC(=O)CC#N)C2C(=O)N(c3ccccc3)N=C2N)cc1C (configuration not stated)", "F"],
  ["CC(C)(C)OC(=O)N1CC(O)O[C@H](c2ccccc2)[C@@H]1c1ccccc1 (some centres not stated)", "F"],
  ["COc1ccc2nc3ccc(OC)cc3c(SCCO)c2c1", "F"],
  ["CN(C)c1nc(N(C)C)nc(N(C)C23CC4CC(CC(C4)C2)C3)n1", "F"],
  ["CN(c1ccccc1)C(c1ccccc1)C(O)c1ccccc1 (configuration not stated)", "F"],
  ["CC(C)=CCOc1cc(NC(=S)c2ccoc2C)ccc1Cl", "F"],
  ["Clc1ccccc1C1SCc2nc3ccccc3n21 (configuration not stated)", "F"],
  ["O/N=C1\\CCc2cc3c(cc21)CCC3", "F"],
  ["O=C(OCc1ccccc1)OOC(=O)OCc1ccccc1", "F"],
  ["Cc1ccnc2nc3[nH]c4ccccc4c3cc12", "F"],
  ["CCN(CC)CCC1(C(=O)OC)SCCc2ccc(C)cc21 (configuration not stated)", "F"],
  ["FC(F)=C(c1ccc(-c2ccc(Cl)cc2)cc1)C(F)(F)F", "F"],
  ["O=C1c2ccccc2N2Oc3ccccc3C12c1ccccc1 (configuration not stated)", "F"],
  ["C/C(=N\\Nc1nc2ccccc2o1)c1cccc[n+]1[O-]", "F"],
  ["N/N=C(\\C(=O)Nc1c(Cl)cc([N+](=O)[O-])cc1Cl)C(c1cnc2ccc([N+](=O)[O-])cc2n1)[N+](=O)[O-] (configuration not stated)", "F"],
  ["CC(C)c1cc2c(O)c(c1)Cc1cc(C(C)C)cc(c1O)Cc1cc(C(C)C)cc(c1O)Cc1cc(C(C)C)cc(c1O)C2", "F"],
  ["Cc1nc2sccn2c1C(=O)NNC(N)=S", "F"],
  ["O=C1CCSC(=S)N1c1ccc(Br)c(Cl)c1", "F"],
  ["COc1ccc(NC(=O)c2cc(OC)cc(OC)c2)cc1", "F"],
  ["O=C1C=C/C(=C/[C@H]2SSC=C[C@]23C=CC(=O)C3)C1", "F"],
  ["CC1NC(/C(=C/c2ccccc2O)NC(=O)c2ccccc2)OC1=O (configuration not stated)", "F"],
  ["CN1C(=O)CC(=O)N1/C(=C/c1ccccc1)c1ccccc1", "F"],
  ["CC(=O)N1NC(c2ccccc2)=NC(=O)C1c1cc(C)c(O)c(C)c1 (configuration not stated)", "F"],
  ["CN(C)c1ccc(/C=C2\\C[C@H]3[C@@H]4CCc5cc(OCCN6CCCC6)ccc5[C@H]4CC[C@]3(C)C2=O)cc1", "T"],
  ["CCOc1ncnc2ccc(Cl)c(I)c12", "F"],
  ["COC(=O)/C=C1\\C(=O)N(C(C)=O)c2ccccc21", "F"],
  ["O=C(CC(O)(c1ccccc1)c1ccc(Cl)cc1)NC(=O)c1ccccc1O (configuration not stated)", "F"],
  ["O=C1CSC2=NC3=C(CSC/C3=C\\c3ccc(Cl)cc3)C(c3ccc(Cl)cc3)N12 (configuration not stated)", "F"],
  ["COC(=O)C(Cc1ccccc1)/N=C/c1c(O)c(O)c(C(C)C)c2cc(C)c(-c3c(C)cc4c(C(C)C)c(O)c(O)c(/C=N/C(Cc5ccccc5)C(=O)OC)c4c3O)c(O)c12 (configuration not stated)", "F"],
  ["O=C(CC(=O)n1nc(-c2ccccc2)c(/N=N/c2ccc(Cl)cc2)c1-c1ccccc1)Nc1cccc(Cl)c1", "F"],
  ["COc1ccc(C(=C2C(=O)N(c3ccccc3)C(=O)C2=C(C)C)c2ccc(OC)cc2)cc1", "T"],
  ["CC(C)(C)OC(=O)NCC(CNC(=O)OC(C)(C)C)C(N)=O", "F"],
  ["C=C1C2CCC3(CCC4C5(C)CCCC4(C=[N+](CCO)C5)C3C2)C1O (configuration not stated)", "F"],
  ["CCOC(=O)C(NCc1cccc(C(F)(F)F)c1)(NC(=O)CC)C(F)(F)F (configuration not stated)", "F"],
  ["O=C(NCC(C(=O)OCc1ccccc1)C(=O)OCc1ccccc1)OCc1ccccc1", "F"],
  ["COc1cc2cnc3c4cc(OC)c(OC(C)C)cc4ccc3c2cc1OC", "F"],
  ["N#Cc1ccc(Oc2ccccc2)cc1C#N", "F"],
  ["CCc1n[nH]c(=O)n1-c1ccncc1", "F"],
  ["O=C(Nc1ccccc1C(=O)NCc1ccccc1)/C(=C/c1ccccc1O)NC(=O)c1ccccc1", "F"]
]}
